tested on: CP256; assay: qHTS profiling for inhibitors of Plasmodium falciparum proliferation (AID 504749); also: nearly all actives have a fitted effect of over 60% in size; settings: P. falciparum in erythrocytes, SYBR Green DNA, 72 h; series mostly up to 28.7 µM
Results filed as inconclusive are left out. Active and inactive are the calls of the source. Calls follow the shape of the dose curve; as a rule, active = well fitted inhibition curve with a large enough effect; inconclusive = small, poorly fitted or top-dose-only effect; inactive = flat fitted curve, though single readings scatter.
Write down the outcome that applies. Available outcomes: TRUE = active, FALSE = inactive

Q) Each compound tested received a call. Report the one for OCCOC[C@H]1O[C@H](OCCO)[C@H](OCCO)[C@@H](OCCO)[C@@H]1OCCO (tested in a mixture with another compound) .
A) FALSE

Q) Each compound tested received a call. Report the one for "OC[C@@H]1O[C@](CO)(O[C@H]2O[C@H](CO)[C@@H](O)[C@H](O)[C@H]2O)[C@H](O)[C@H]1O" .
A) FALSE

Q) Each compound tested received a call. Report the one for CNC1C(O)C(OC2C(NC(=O)C(O)CN)CC(N)C(OC3OC(CN)C(O)C(O)C3O)C2O)OCC1(C)O (centres undefined) .
A) FALSE

Q) Each compound tested received a call. Report the one for "O=C(O)Cc1sc(-c2ccc(Cl)cc2)nc1-c1ccccc1" .
A) FALSE

Q) Each compound tested received a call. Report the one for "CCCC(=O)Nc1c(I)cc(I)c(C[C@H](CC)C(=O)O)c1I" .
A) FALSE

Q) Each compound tested received a call. Report the one for O=c1ccn(C2OC(COP(=O)(O)OC3C(CO)OC(n4ccc(=O)[nH]c4=O)C3O)C(O)C2O)c(=O)[nH]1 (centres undefined) .
A) FALSE

Q) Each compound tested received a call. Report the one for CC1(Cn2ccnn2)[C@H](C(=O)O)N2C(=O)C[C@H]2S1(=O)=O (some centres undefined) .
A) FALSE

Q) Each compound tested received a call. Report the one for "Nc1nc(F)nc2c1ncn2[C@@H]1O[C@H](CO)[C@@H](O)[C@H]1O" .
A) FALSE

Q) Each compound tested received a call. Report the one for C[C@@H]1CC2C3CCC4=CC(=O)C=C[C@]4(C)[C@@]3(F)[C@@H](O)C[C@]2(C)[C@@]1(O)C(=O)COC(=O)c1cccc(S(=O)(=O)O)c1 (some centres undefined) .
A) FALSE

Q) Each compound tested received a call. Report the one for "CC1(C)OC[C@@H]2O[C@@]3(C(=O)O)OC(C)(C)O[C@@H]3[C@@H]2O1" .
A) FALSE

Q) Each compound tested received a call. Report the one for CCC(C(=O)O)C1OC(C(C)C(O)C(C)C(=O)C(CC)C2OC3(C=CC(O)C4(CCC(C)(C5CCC(O)(CC)C(C)O5)O4)O3)C(C)CC2C)C(C)CC1C (centres undefined) .
A) TRUE

Q) Each compound tested received a call. Report the one for NCCCCC(N)C(=O)O (centres undefined) .
A) FALSE

Q) Each compound tested received a call. Report the one for CC(=O)NC1[C@H](O)C[C@@](O)(C(=O)O)O[C@H]1[C@H](O)[C@H](O)CO (some centres undefined) .
A) FALSE

Q) Each compound tested received a call. Report the one for "C/C=C1/NN(CCCN2CCN(c3cccc(Cl)c3)CC2)C(=O)N1CCOc1ccccc1" .
A) FALSE

Q) Each compound tested received a call. Report the one for C/C1=C2/[N-]C(C(CC(N)=O)[C@@]2(C)CCC(=O)NCC(C)OP(=O)([O-])O[C@H]2[C@@H](O)[C@@H](n3cnc4cc(C)c(C)cc43)O[C@@H]2CO)[C@]2(C)N=C(/C(C)=C3N=C(/C=C4N=C1C(CCC(N)=O)C\4(C)C)[C@@H](CCC(N)=O)[C@]\3(C)CC(N)=O)[C@@H](CCC(N)=O)[C@]2(C)CC(N)=O.CC(=O)O.[Co] (some centres undefined) .
A) FALSE

Q) Each compound tested received a call. Report the one for CCC1OC(=O)C[C@@H](O)[C@H](C)[C@@H](OC2OC(C)CC(N(C)C)C2O)[C@@H](CC=O)C[C@@H](C)C(=O)/C=C/[C@]2(C)OC2C1C (some centres undefined) .
A) TRUE

Q) Each compound tested received a call. Report the one for CC12C=CC(=O)C=C1[C@@H](F)CC1C2C(O)CC2(C)C1CC[C@]2(O)C(=O)CO (some centres undefined) .
A) FALSE

Q) Each compound tested received a call. Report the one for "O=[N+]([O-])O[C@H]1CO[C@H]2[C@@H]1OC[C@H]2O" .
A) FALSE

Q) Each compound tested received a call. Report the one for Nc1nc(/C(=C/CC(=O)O)C(=O)NC2C(=O)N3C(C(=O)O)=CCSC23)cs1 (centres undefined) .
A) FALSE

Q) Each compound tested received a call. Report the one for CCCCN1CC(O)C(O)C(O)C1CO (centres undefined) .
A) FALSE

Q) Each compound tested received a call. Report the one for CC(=O)OCC(=O)[C@@]1(O)CCC2C3C[C@H](C)C4=CC(=O)C=CC4(C)C3C(O)CC21C (some centres undefined) .
A) FALSE

Q) Each compound tested received a call. Report the one for Cc1c(C)c2c(c(C)c1O)CCC(C)(CCCC(C)CCCC(C)CCCC(C)C)O2 (centres undefined) .
A) FALSE

Q) Each compound tested received a call. Report the one for C=C[C@H]1CN2CCC1C[C@H]2[C@H](O)c1ccnc2ccc(OC)cc12 (some centres undefined) .
A) TRUE

Q) Each compound tested received a call. Report the one for CCC(C)C(N)C(=O)O (centres undefined) .
A) FALSE

The origin of these recorded values is PubChem BioAssay (NCATS).
